Ref: ChEMBL document CHEMBL2380228

experimental-details: Inhibition of HIV-1 BH10 reverse transcriptase using poly(rA)/oligo(dT)15 as substrate after 60 mins by plate reader analysis
Set-up: species or system Human immunodeficiency virus type 1 BH10
measured-endpoint: IC50

[
  {
    "compound-structure-string": "CCCn1c(=O)nc(-c2ccccc2)c2oc3ccc(-c4ccc(CN(C)C)cc4)cc3c21",
    "IC50": "> 685 nM"
  },
  {
    "compound-structure-string": "CN(C)Cc1ccc(-c2ccc3oc4c(-c5ccccc5)nc(=O)n(CCCc5ccccc5)c4c3c2)cc1",
    "IC50": "> 365 nM"
  }
]

Exam item: Sample CN(C)Cc1ccc(-c2ccc3oc4c(-c5ccccc5)nc(=O)n(CCCC(=O)O)c4c3c2)cc1 — what was its IC50?
Marked response: > 4700 nM
